Study the reported IC50 values for UniProtKB P43405 given below; they originate from different publications.

{"columns": ["Molecule", "IC50"],
 "data": [
  ["Cc1cc(-n2nc(C(C)(C)C)cc2NC(=O)Nc2ccc(OCc3ccnc(Nc4cnccn4)c3)c3ccccc23)cs1 (single isomer, unassigned)", "> 16500 nM"],
  ["CC(=O)N1CCN(c2ccc(Nc3nc(-c4c(F)cccc4F)nc4cn[nH]c34)cc2)CC1", "100 to 1000 nM"],
  ["CC1(C)C(=O)Nc2cc(Nc3nc4c(C5CCCC5)nccn4n3)ccc21", "300 to 3000 nM"],
  ["Cc1ccc(-c2nc(Nc3ccc(N4CCOCC4)cc3)c3[nH]ncc3n2)s1", "10 to 100 nM"],
  ["COc1ccc(-c2nnn[nH]2)cc1-c1cc2nccc(-c3c(OC)cccc3OC)c2o1", "< 100 nM"],
  ["c1nn(C2CC2)cc1Nc1nc(C2CC2)nc2cn[nH]c12", "10 to 100 nM"],
  ["COc1cc(-c2cc3nccc(-c4ccc5c(c4)ncn5CCN)c3o2)cc(OC)c1OC", "300 to 3000 nM"],
  ["CC(=O)N1CCO[C@H](COc2nc(-c3ccc(C(C)(CO)CO)cc3)cc3nccnc23)C1", "175 nM"],
  ["COc1cccc2nc(Nc3cnn(CC(=O)N(C)C)c3)c3[nH]ncc3c12", "100 to 1000 nM"],
  ["Cc1c(Nc2ccnc3cc(-c4ccc5c(c4)OCO5)oc23)ccc2[nH]ccc12", "300 to 3000 nM"],
  ["CC(=O)N1CCN(c2ccc(Nc3nc(C4CC4)nc4cn[nH]c34)cc2)CC1", "100 to 1000 nM"],
  ["CC(C)(O)c1ccc(Nc2nc3c(N4CCCCCC4)nccn3n2)cc1N", "< 100 nM"],
  ["CC(C)(C)c1cc(NC(=O)Nc2ccc(Oc3ccnc(Nc4ccc5c(c4)OCO5)n3)c3ccccc23)n(-c2ccc(OCCN3CCOCC3)cc2)n1", "141 nM"],
  ["Cn1nnc2ccc(Nc3nc4c(-c5ccccc5-c5ccccc5)nccn4n3)cc21", "100 to 300 nM"],
  ["CC1(C)C(=O)Nc2cc(Nc3nc4c(N5CCC[C@H](N)C5)nccn4n3)ccc21", "< 100 nM"],
  ["COc1cc(Nc2nc3cncc(-c4cnn(C)c4)n3n2)ccc1N1CCN(C)CC1", "1000 to 5000 nM"],
  ["COc1cc2nccc(Oc3ccc(NC(=O)c4cc(S(C)(=O)=O)n(-c5ccc(F)cc5)n4)c(F)c3)c2cc1OC", "≥ 10000 nM"]
]}
